ASSAY SYSTEM: Ubiquitin-activating enzyme e1, putative (Leishmania donovani (strain BPK282A1))
ASSAY: Leishmania donovani Ubiquitin Activating Enzyme (LdE1)
Format: functional
Design: scale not given: direction of the effect not stated beside the values
EXPERIMENTAL SETUP: 30 µM
Results with a measured potency or affinity are listed apart.
Consider the following compounds and their measured Percent Effect readings.
Field format: number, assumed %, no unit text.

Answered examples (3):
>>> assay_result("NC(=O)C1CCCN(Cc2c(-c3ccco3)[nH]c3ncccc23)C1 (centres undefined)")
12.2
>>> assay_result("Cn1cnc2c1C(COCC1CC1)CN(Cc1ccc3c(c1)OCO3)C2 (centres undefined)")
-2.7
>>> assay_result("COc1ccc(CNC(=O)NC(C)Cn2cccn2)cc1O (centres undefined)")
5.2

Recorded result, COc1ccccc1CN1CC[C@H]2C[C@@H](C(=O)N3CCCC3)O[C@H]2C1 , Percent Effect: 13

Item: Cn1cc(CN2C[C@@H]3CN(Cc4ccoc4)CCO[C@@H]3C2)cn1 | Percent Effect: 7.79

# Percent Effect (compound: Cc1ccc(CN2CCCn3c(nc(Cn4cncn4)cc3=O)C2)s1 ) is 11.7

Quick note, Percent Effect for Cc1nc(C)n(CC2CCCN2CCOc2ccc(C#N)cc2)n1 (centres undefined) landed at 2.53

Looking up CCC1=N[C@@]2(CC[C@@H]3CN(S(=O)(=O)CC)C[C@@H]32)C(=O)N1CC(C)C , I see its Percent Effect listed as 2.6

The recorded Percent Effect for entry Cc1nn(C)c(N2CCOCC2)c1CNC1CCc2cc(F)ccc21 (centres undefined) equals 20.8

====

This section presents compounds with their documented Percent Effect values.
System: Trypanosoma cruzi
ASSAY: Trypanosoma cruzi phosphomannomutase and mannose-1-phosphate guanylyltransferase assay
Format: functional
Set-up: scale not given: direction of the effect not stated beside the values
EXPERIMENTAL SETUP: 10 µM
Your answer is read as %, so omit the unit and give the number.

Illustrative cases are given below, each with its answer.
>>> assay_result("CN(Cc1cn2ccccc2c1C#N)C1CCCN(c2cccnn2)C1 (configuration not stated)")
1.31
>>> assay_result("CC(C(=O)NCCOc1cccc(Cl)c1)n1cncn1 (configuration not stated)")
2.55
>>> assay_result("O=S1(=O)N=C(SCc2ccc(Cl)cc2)Nc2ccc(F)cc21")
-1.08
>>> assay_result("CC(=O)c1ccc(N2CCCC(CO)(CCOc3ccccc3)C2)nc1 (configuration not stated)")
6.39
>>> assay_result("COc1ccc(CNCCc2cc(F)cc3c2OCOC3)cc1O")
-2.62
>>> assay_result("c1cnc(N2CCC3(CCN(CC4CC4)CC3)CC2)nc1")
-2.82
>>> assay_result("Cc1noc(CN2CCN(Cc3cccs3)CC2)n1")
-5.24
>>> assay_result("CC(=O)c1cccc(OCC(=O)NS(=O)(=O)c2ccc(C)s2)c1")
4.63
>>> assay_result("CC(O)CN1CCC(CNCc2cccc(OC(C)C)c2)CC1 (configuration not stated)")
8.21
>>> assay_result("Nc1cc(CCCNC(=O)NC2CC2)nn1-c1ccccc1")
-6.27

Trypanosoma cruzi assay, compound CCn1cnnc1CNC(=O)N(C)Cc1ccc(F)c(F)c1 , recorded Percent Effect = 1.04

Measured Percent Effect (Trypanosoma cruzi), entry N#Cc1ccc(S(=O)(=O)NC(=O)C2CC2)c(C(F)(F)F)c1 : 4.81

====

ASSAY SYSTEM: Sialic acid-binding Ig-like lectin 9 (Homo sapiens) (UniProt Q9Y336)
Sequence (Q9Y336 whole entry): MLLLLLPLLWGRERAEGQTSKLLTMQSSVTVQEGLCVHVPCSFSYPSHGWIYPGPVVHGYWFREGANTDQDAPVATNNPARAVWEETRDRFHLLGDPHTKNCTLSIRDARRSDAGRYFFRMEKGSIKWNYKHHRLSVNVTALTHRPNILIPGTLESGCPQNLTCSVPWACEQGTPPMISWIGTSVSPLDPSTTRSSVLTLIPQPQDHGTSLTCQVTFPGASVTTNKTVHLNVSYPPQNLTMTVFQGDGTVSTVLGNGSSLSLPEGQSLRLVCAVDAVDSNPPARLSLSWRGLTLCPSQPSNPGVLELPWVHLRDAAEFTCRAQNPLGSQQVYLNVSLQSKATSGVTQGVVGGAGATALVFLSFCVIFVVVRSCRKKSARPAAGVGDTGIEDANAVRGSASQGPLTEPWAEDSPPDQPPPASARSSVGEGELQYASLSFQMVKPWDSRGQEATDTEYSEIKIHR
ASSAY: Hs-Siglec9 ALPHAscreen SOP 20170721
Set-up: scale not given: direction of the effect not stated beside the values
EXPERIMENTAL SETUP: 10 µM
PROPERTY LABEL: Percent Effect (%)
Field: numeric (%). Do not append units.

Below are worked cases with known answers.
>>> assay_result("O=C(c1ccsc1)N1CCc2c(COCc3ccncc3)cncc2C1")
1.44
>>> assay_result("Cc1nc(C2CCCN2CCCS(=O)(=O)N(C)C)no1 (configuration not stated)")
-5.59
>>> assay_result("COc1cccc(CN2CCN(c3ccc4nncn4n3)C(C)C2)c1 (configuration not stated)")
-4.72
>>> assay_result("Cn1cc(CN2CC[C@H]3OCC[C@@H](C(=O)N4CCCCO4)[C@@H]3C2)cn1")
1.18
>>> assay_result("Cc1ccccc1CN1CCCN(C2CCOC2=O)CC1 (configuration not stated)")
10.9

Lab entry: Sialic acid-binding Ig-like lectin 9 (Homo sapiens) (UniProt Q9Y336) assay, compound Cc1nnc(NC(=O)CN2CCCC(Cn3cncn3)C2)s1 (configuration not stated) , Percent Effect = 7.25

Item CCn1cc(CN2CCCN(C(=O)c3sccc3C#N)CC2)cn1 ; assay system Sialic acid-binding Ig-like lectin 9 (Homo sapiens) (UniProt Q9Y336); Percent Effect reported as -2.29

CC(=O)NCC(=O)N1CCN(CC2CC2)c2ncccc2C1 tested on Sialic acid-binding Ig-like lectin 9 (Homo sapiens) (UniProt Q9Y336) gave Percent Effect: 6.27

Value sought: Percent Effect, system Sialic acid-binding Ig-like lectin 9 (Homo sapiens) (UniProt Q9Y336), item COCc1ccc(CN2CCC(O)(Cn3ccc4ncccc43)CC2)o1 . Result: 1.83

Reported Percent Effect (Sialic acid-binding Ig-like lectin 9 (Homo sapiens) (UniProt Q9Y336)) for entry CC(C)n1[nH]c(=O)c2c1NC(=O)CC2c1ccc2ncccc2c1 (configuration not stated) is 0.703

The recorded Percent Effect with Sialic acid-binding Ig-like lectin 9 (Homo sapiens) (UniProt Q9Y336) for O=C(c1cnc(COc2ccccc2)nc1O)N1CCOCC1 was -9.54

Percent Effect for Sialic acid-binding Ig-like lectin 9 (Homo sapiens) (UniProt Q9Y336) with input O=C(Nc1cc(C(F)(F)F)c[nH]c1=O)c1ccco1 equals 5.92

====

ASSAY SYSTEM: Tyrosyl-tRNA synthetase, putative (Trypanosoma cruzi (strain CL Brener))
ASSAY: Trypanosoma cruzi tyrosyl tRNA synthetase (TcYRS) SOP
Format: functional
Parameters: scale not given: direction of the effect not stated beside the values
EXPERIMENTAL SETUP: 30 µM
just bin them by Percent Effect: low-valued = under 10%, mid-valued = from 10% up to 20%, high-valued = 20% and over

Examples from the recorded data:
>>> assigned_class("Cc1ccc(C2COCCN2C(=O)c2ccc(N(C)C)cc2)o1 (stereo not drawn)")
"mid-valued"
>>> assigned_class("CC(Cn1cccn1)NC(=O)N1CCN(Cc2cccs2)CC1 (stereo not drawn)")
"mid-valued"
>>> assigned_class("Cc1cc(C)n(CC2CN(CC(=O)Nc3c(C)n[nH]c3C)CCO2)n1 (stereo not drawn)")
"mid-valued"
>>> assigned_class("CN(Cc1cc(-c2ccccc2)no1)C1CCCN(c2cccnn2)C1 (stereo not drawn)")
"mid-valued"
>>> assigned_class("Cc1nn(C)cc1CCC(=O)N1CCCC(n2cncn2)C1 (stereo not drawn)")
"mid-valued"
>>> assigned_class("COC[C@H]1CCC[C@]12CN(CCc1ccccc1)CCO2")
"low-valued"
>>> assigned_class("O=C(c1cccc(OC2CCCC2)c1)N1CCCC(n2cncn2)C1 (stereo not drawn)")
"mid-valued"
>>> assigned_class("CN(C)C(=O)N1CCN(Cc2noc(Cc3ccccc3)n2)CC1")
"low-valued"
>>> assigned_class("O=C(NCCn1nc2ccccn2c1=O)c1cccc2[nH]ncc12")
"high-valued"
>>> assigned_class("Cn1ncc(NCc2cccc(COC(C)(C)C)c2)c(Cl)c1=O")
"mid-valued"

Lab note: which band did Cc1cnn(CC2CCCN2C(=O)CCc2c(C)noc2Cl)c1 (stereo not drawn) land in? low-valued

====

ASSAY SYSTEM: Proteasome subunit beta (Trypanosoma cruzi) (UniProt O96673)
Sequence (O96673 as listed by the source): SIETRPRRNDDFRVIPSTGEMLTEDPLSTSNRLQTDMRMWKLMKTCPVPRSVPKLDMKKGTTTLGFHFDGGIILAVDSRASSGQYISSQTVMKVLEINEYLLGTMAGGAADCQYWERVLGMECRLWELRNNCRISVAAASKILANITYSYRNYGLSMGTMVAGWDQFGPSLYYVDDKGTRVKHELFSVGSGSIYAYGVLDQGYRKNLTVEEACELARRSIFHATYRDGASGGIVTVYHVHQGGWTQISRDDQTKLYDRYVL
ASSAY: Trypanosoma cruzi proteasome chymotrypsin-like activity (TcProtChymo) assay. Note: in the data most compounds retested in dose-response had high values.
Type: functional
Set-up: scale not given: direction of the effect not stated beside the values
EXPERIMENTAL SETUP: 9.37 µM
Measured Percent Effect, listed per entry.
Answer with a number only, understood to be in %.

Worked cases, Percent Effect given:
>>> assay_result("CC(Oc1ccccc1C(F)(F)F)C(=O)NS(=O)(=O)C(C)C (stereo not given)")
14.1
>>> assay_result("O=C(NCc1ccco1)[C@H]1C[C@H]2OCC[C@H]2N(C(=O)c2ccco2)C1")
12
>>> assay_result("Cc1cc(CN2CCCC(C)(CO)C2)ccc1F (stereo not given)")
0.0858
>>> assay_result("CCn1ccnc1CNCC1CCCN1c1cc(NC)ncn1 (stereo not given)")
4.5
>>> assay_result("CN(CCC(F)(F)F)C(=O)[C@H]1CSCN1C(=O)OC(C)(C)C")
1.77
>>> assay_result("Cc1nc(CN2CCCN(CCOc3cccc(C#N)c3)CC2)no1")
16.3
>>> assay_result("CCC1CN(C(=O)c2ccc(Cl)cc2O)CCN1C(C)C (stereo not given)")
6.34
>>> assay_result("Cc1cn2c(n1)CCC(NC(=O)c1nc(C)ncc1Cl)C2 (stereo not given)")
8.49
>>> assay_result("COc1cc(NC(=O)Cn2ccc3sc(C)cc3c2=O)cc(OC)c1")
7.49
>>> assay_result("COc1ccc(OCCc2sc(C3(O)CCCNCC3)nc2C)cc1 (stereo not given)")
13.6

compound Cc1cnc(CN(C)C2CCN(Cc3ccccc3C#N)C2)o1 (stereo not given) , Percent Effect observed: 18.4

The value of Percent Effect measured for the compound COCCN1CC[C@@H]2O[C@@H](COCC(=O)N3CCCC3)CC[C@@H]21 turned out to be 3.85

The compound listed as CC(O)CN1CCC(CNCc2c[nH]nc2C(C)(C)C)CC1 (stereo not given) shows Percent Effect equal to 11.9

The compound CCc1cccc(N2CCC(NC(=O)c3ccc(=O)[nH]n3)CC2)c1 showed Percent Effect equal to 15.8

Percent Effect for O=C(NCCCO)Nc1cccc(Cl)c1F is 8.25

Input c1ccc(-n2ccnc2)c(CNCC2CNc3ccnn3C2)c1 (stereo not given) . Output Percent Effect: 2.53

Sure, the documented Percent Effect for CC(C)c1ncc(S(C)(=O)=O)c(C2CCCNC2)n1 (stereo not given) is 3.94

Looking up CCSc1cc(C(=O)NCc2ccccc2O)ccn1 , I see its Percent Effect listed as 12.2

Per the records, this compound ( c1cnnc(N2CCCC(NCc3nnc(-c4ccco4)o3)C2)c1 (stereo not given) ) has Percent Effect equal to 25.2

compound CCN(CC)C(=O)c1ccn(COc2ccccc2)n1 , Percent Effect observed: 8.5

The compound listed as COc1ccccc1[C@@H]1CN(C(=O)c2csc(C)n2)C[C@H]1C(=O)O shows Percent Effect equal to 16.7

For COc1ccccc1C(O)CNC(=O)NCc1cccnc1OC (stereo not given) the compound record lists Percent Effect as 6.63

For CCOc1ccc2[nH]c(=O)c(CN3CCC(O)CC3)cc2c1 the compound record lists Percent Effect as 3.77

Note to self: Percent Effect recorded for Cc1ccsc1CN(C)C(=O)Cn1nc(-c2ccc(F)cc2)oc1=O was 22.5

response.value for CCCc1n[nH]c(C2CN(C(=O)CCCn3cccn3)CCO2)n1 (stereo not given) (field: Percent Effect) = 7.89
